System: K-562 leukemia
protocol-summary: NCI-60 one-dose screen, 48 h (100 = growth as untreated, 0 = no growth, -100 = all killed)
applied-conditions: 10 µM unless noted
The panel holds about 83,000 compounds, 20% with a hit somewhere; the sample as a whole holds those more often.
endpoint-name: growth (%)
Use % as the unit, but write only the number.

# count of solved cases: 4
* O=C(Nc1cccc2[nH]c(C(F)(F)F)nc12)c1ccc(-n2cnnn2)cc1 | 21.5
* CCOc1cc2ncc(C#N)c(Nc3ccc(F)c(Cl)c3)c2cc1NC(=O)CC1CCSS1 (stereo not given) | -26.4
* COc1ccc(-n2nc(C)c3c(Nc4ccc(NC(=O)Nc5cccc(C(F)(F)F)c5)cc4)ncnc32)cc1 | 4.37
* NC(=O)c1cc(Br)ccc1NC(=O)/C=C/c1ccccc1 | 15

// query Provide the documented growth with K-562 leukemia as the system for `CN1CCN(c2ccc(Nc3c4ccccc4nc4ccccc34)cc2)CC1`
// result 105

====

System: NCI-H460 lung
protocol-summary: NCI-60 one-dose screen, 48 h (100 = growth as untreated, 0 = no growth, -100 = all killed)
applied-conditions: 10 µM unless noted
Experimental: Growth inhibition of the NCI-H460 human Non-Small Cell Lung tumor cell line is measured as a screen for anti-cancer activity. Cells are grown in 96 well plates and exposed to the test compound for 48 hours. Compounds are tested at a single concentration, which is 10^-5 M for most compounds. The reported endpoint is percent growth (GI% or GIPRCNT), where numbers from 0 - 100% represent growth inhibition, and numbers from -100% - 0 represent cell death. […]
Compounds without any hit were thinned out: in the full panel of roughly 83,000, 20% have a hit.
growth values by entry
Use % as the unit, but write only the number.

* C#CC(F)(F)[C@]1(O)CC[C@H]2[C@@H]3CCC4=CC(=O)CCC4=C3[C@@H](c3ccc(C4CC4)cc3)C[C@@]21C | 57.1
* CCCCn1c(-c2ccc(C(=O)O/N=C(\N)c3ccc4ccccc4c3)cc2)nc(-c2ccccc2)c1-c1ccccc1 | 26.3

Next, consider the following compound.
// query Give the measured growth of `Cc1cc(N2CCOCC2)nc(NCc2cc(Nc3ccnc4cc(Cl)ccc34)ccc2F)n1` .
// result -65.7

====

System: SNB-75 CNS
protocol-summary: NCI-60 one-dose screen, 48 h (100 = growth as untreated, 0 = no growth, -100 = all killed)
applied-conditions: 10 µM unless noted
The panel holds about 83,000 compounds, 20% with a hit somewhere; the sample as a whole holds those more often.
growth values by entry
Use % as the unit, but write only the number.

- CC[C@H]1OC(=O)[C@H](C)[C@@H](O[C@H]2C[C@@](C)(OC)[C@@H](O)[C@H](C)O2)[C@H](C)[C@@H](O[C@@H]2O[C@H](C)C[C@H](N(C)C)[C@H]2O)[C@](C)(O)C[C@H](C)CN(C)[C@H](C)[C@@H](O)[C@]1(C)O: 80.8

// query Give the measured growth of `O=C1CC[C@H](c2ccc(O)c3c2C(=O)[C@@H]2O[C@@H]2C3=O)c2cccc(O)c21` .
// result 81.3

// query Give the measured growth of `COc1ccc2cc(-c3nn(-c4ccc(C(=O)O)cc4)cc3CO)ccc2c1` .
// result 80.9

====

System: OVCAR-3 ovarian
protocol-summary: NCI-60 one-dose screen, 48 h (100 = growth as untreated, 0 = no growth, -100 = all killed)
applied-conditions: 10 µM unless noted
About 83,000 compounds went through this panel and 20% of them were active in at least one assay; those are over-represented in the sample as a whole.
growth values by entry
Use % as the unit, but write only the number.

# count of solved cases: 5
* COc1cccc(Nc2nc(SC)nc(-c3cccc([N+](=O)[O-])c3)c2C#N)c1 | 51.8
* CC/C=C\C[C@H]1C/C=C2/C(=O)C=C[C@H]2C/C=C\CCCC(=O)O1 | 6.53
* Cn1cc(C(=O)c2nc(-c3c[nH]c4ccc(F)cc34)no2)c2cc(F)ccc21 | 97.4
* COC(=O)c1ccc(NC(=O)c2ccc(-c3cccc([N+](=O)[O-])c3)o2)cc1 | 101
* CN1CCN(c2nc(NCCCNc3ccnc4cc(Cl)ccc34)c3ccccc3n2)CC1 | 75.8

// query Give the measured growth of `O=c1ccccc(-c2ccc(-c3ccco3)cc2)c1O` .
// result 28.8

// query Give the measured growth of `Cn1cccc1-c1nc2c3c(ccc2[nH]1)C(=O)c1ccccc1C3=O` .
// result 95

// query Give the measured growth of `COc1cc(/C=C/C(=O)c2ccc(O)c(CN3CCN(c4cc5c(cc4F)c(=O)c(C(=O)O)cn5C4CC4)CC3)c2)cc(OC)c1OC` .
// result 14

====

Test system: HOP-62 NSCLC
protocol-summary: NCI-60 one-dose screen, 48 h (100 = growth as untreated, 0 = no growth, -100 = all killed)
applied-conditions: 10 µM unless noted
About 83,000 compounds went through this panel and 20% of them were active in at least one assay; those are over-represented in the sample as a whole.
growth values by entry
Use % as the unit, but write only the number.

* COc1ccc(CN2c3ccccc3Sc3ccccc32)cc1O | 36.3

// query Give the measured growth of `O=C(/C=C/c1cccc(Cl)c1)c1ccc(O)c(CN2CCN(c3cc4c(cc3F)c(=O)c(C(=O)O)cn4C3CC3)CC2)c1` .
// result 37.2

// query Give the measured growth of `CSc1nc2c(c(=O)[nH]1)C1(C(=O)Nc3ccccc31)c1c(nc(SC)[nH]c1=O)N2` .
// result 113

// query Give the measured growth of `O=C1c2ccccc2C(=O)c2c1ccc1[nH]c(-c3cccs3)nc21` .
// result 102

// query Give the measured growth of CCOC(=O)C(C)(C#N)C1C=CCCC1 (stereo unspecified) .
// result 89.8

// query Give the measured growth of `NC1=C(Cl)C(=O)c2ccc(S(N)(=O)=O)cc2C1=O` .
// result -68.2

====

System: SF-295 CNS
protocol-summary: NCI-60 one-dose screen, 48 h (100 = growth as untreated, 0 = no growth, -100 = all killed)
applied-conditions: 10 µM unless noted
The panel holds about 83,000 compounds, 20% with a hit somewhere; the sample as a whole holds those more often.
# fulfilled = growth below 30% (exclusive); not fulfilled = growth at/above 30%

* COc1cccc(-c2nc3sccn3c2-c2ccnc(NCCCNS(=O)(=O)c3cccc(F)c3)c2)c1 | fulfilled
* CN(C)c1ccc(N=Nc2ccc(Br)cn2)c(O)c1 | fulfilled
* NNCCc1ccc(NC(=O)CCCc2ccc(/C=C/C(=O)NO)cc2)cc1 | not fulfilled
* COc1cccc(-c2nc(SCC(=O)Nc3ccc(C(=O)/C=C/c4ccc(OC)c(OC)c4)cc3)[nH]c(=O)c2C#N)c1 | not fulfilled

// query Bench note: check whether `Cn1cc(-c2nonc2-c2cn(C)c3ccc(F)cc23)c2ccccc21` shows growth below 30%
// result fulfilled

// query Bench note: check whether C=CC(COC(c1ccccc1)(c1ccccc1)c1ccccc1)N(CC)CC (stereo not given) shows growth below 30%
// result not fulfilled

// query Bench note: check whether `NS(=O)(=O)c1ccc(CN=C2NC(=O)S/C2=C\c2ccc(Br)cc2)cc1` shows growth below 30%
// result not fulfilled

// query Bench note: check whether `O=c1c(F)cn(Cc2ccccc2CCl)c(=O)n1Cc1ccccc1CCl` shows growth below 30%
// result fulfilled

// query Bench note: check whether Cn1nc(N)c2cc([C@@H]3Nc4ccc5[nH]ncc5c4[C@H]4C5CCC(C5)[C@@H]34)ccc21 (stereo not given in full) shows growth below 30%
// result fulfilled

// query Bench note: check whether `COCCNc1ccc2c3c(cccc13)C(=O)N(CCN(C)C)C2=O` shows growth below 30%
// result fulfilled

// query Bench note: check whether `COc1cc(/C=C/C(=O)c2c(C)oc3nc[nH]c(=O)c23)cc(OC)c1OC` shows growth below 30%
// result not fulfilled

// query Bench note: check whether `CCN(CC)CCCCNc1c2ccc(Cl)cc2nc2ccc(OC)cc12` shows growth below 30%
// result fulfilled

// query Bench note: check whether O=C1OC(c2ccccc2)C(O)=C1c1ccccc1 (stereo not given) shows growth below 30%
// result not fulfilled

// query Bench note: check whether `CC(=O)O[C@H]1CC[C@]2(C)[C@H]3CC=C4[C@@H]5CC(C)(C)CC[C@]5(C(=O)NCCNCCNCCN)CC[C@@]4(C)[C@]3(C)CC[C@H]2C1(C)C` shows growth below 30%
// result not fulfilled

// query Bench note: check whether `CCOC(=O)c1c(CN2CCN(C)CC2)nc2ccc(Cl)cc2c1-c1ccccc1` shows growth below 30%
// result fulfilled

// query Bench note: check whether `O=c1c2c3c(sc2nc(N/N=C/c2cn(-c4ccccc4)nc2-c2ccc(Cl)cc2)n1Cc1ccccc1)CCCC3` shows growth below 30%
// result not fulfilled

// query Bench note: check whether `COc1ccc(-c2cc(=O)c3c(OC)c4ccoc4cc3o2)cc1` shows growth below 30%
// result not fulfilled

// query Bench note: check whether `CC(=O)OCCC/C(=C/c1cc2ccccc2c2ccccc12)[N+](=O)[O-]` shows growth below 30%
// result fulfilled

// query Bench note: check whether `O=C1c2cc3c(cc2-c2c1c1ccc(F)cc1c(=O)n2C[C@H](O)[C@@H](O)[C@H](O)CO)OCO3` shows growth below 30%
// result fulfilled
